Measurement Target: T1, NLpoly11S
T1 chain: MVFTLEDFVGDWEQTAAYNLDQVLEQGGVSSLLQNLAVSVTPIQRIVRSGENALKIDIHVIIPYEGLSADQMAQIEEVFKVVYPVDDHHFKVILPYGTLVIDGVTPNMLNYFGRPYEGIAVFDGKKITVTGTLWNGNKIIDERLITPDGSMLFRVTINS
Procedure Details: luminescence complementation titration, one-site specific binding fit
Measured Metric: Kd (nM)
Give your result in nM as a bare value.

Check out these entries, answers already filled in.
VTGYRLFKEIS (modifications not checked) [array2.7]: 4440
VTGYRLFKQEL (modifications not checked) [array2.33]: 1950
VEGYRLFKQAS (modifications not checked) [array2.59]: 2090
VEGYRLFQKAL (modifications not checked) [array2.92]: 2020
VEGYRLFEQIS (modifications not checked) [array2.76]: 52800
VTGYRLFQKES (modifications not checked) [array2.12]: 417
VTGYRLFEKAL (modifications not checked) [array2.47]: 1810
VEGYRLFKEAL (modifications not checked) [array2.89]: 42400

The recorded Kd for entry VTGYRLFEKAS (modifications not checked) [array2.20] equals 1790
